Reported % inhibition of farnesyltransferase at 1 × 10^-6 M values for a set of molecules
target.under.test: protein farnesyltransferase (Rattus norvegicus, UniProt Q02293+Q04631)
Construct: The enzyme is purified according to Reiss, Y., et al., Cell, 62: 81-88 (1990), utilizing steps one through three; from tissue; host or cells: rat brain
protocol.text: Inhibition of farnesyltransferase (scintillation proximity assay, rat brain enzyme, biotin-K Ras B fragment substrate)
Type: biochemical
test.settings: 1 × 10^-6 M (Table 2)
Numeric answer only, unit % assumed.

The examples below pair each entry with its known result.
[
  {
    "structure.smiles.string": "CSCC[C@H](NC(=O)c1ccc(NC(=O)c2cnccc2C(F)(F)F)cc1-c1ccccc1C)C(=O)O",
    "target.under.test": "protein farnesyltransferase (Rattus norvegicus, UniProt Q02293+Q04631)",
    "reported": 95
  },
  {
    "structure.smiles.string": "CSCC[C@H](NC(=O)c1ccc(CN(Cc2ccc(C(F)(F)F)cc2)c2ccccc2)cc1-c1ccccc1C)C(=O)O",
    "target.under.test": "protein farnesyltransferase (Rattus norvegicus, UniProt Q02293+Q04631)",
    "reported": 96
  },
  {
    "structure.smiles.string": "CSCC[C@H](NC(=O)c1cc(Cc2ccccc2)c(COCc2ccccc2)cc1-c1ccccc1C)C(=O)O",
    "target.under.test": "protein farnesyltransferase (Rattus norvegicus, UniProt Q02293+Q04631)",
    "reported": 78
  },
  {
    "structure.smiles.string": "CSCC[C@H](NC(=O)c1ccc(NC(=O)Cc2ccc(C)cc2)cc1-c1ccccc1C)C(=O)O",
    "target.under.test": "protein farnesyltransferase (Rattus norvegicus, UniProt Q02293+Q04631)",
    "reported": 37
  }
]

Task item: # return recorded % inhibition of farnesyltransferase at 1 × 10^-6 M for entry CSCC[C@H](NC(=O)c1ccc(CNc2ccccc2N2CCCCC2)cc1-c1ccccc1)C(=O)O
Reply: 59

Task item: # return recorded % inhibition of farnesyltransferase at 1 × 10^-6 M for entry CSCC[C@H](NC(=O)c1ccc(CSc2nc(O)cc(Cc3ccccc3)n2)cc1-c1ccccc1C)C(=O)O
Reply: 84

Task item: # return recorded % inhibition of farnesyltransferase at 1 × 10^-6 M for entry CSCC[C@H](NC(=O)c1ccc(COC2(Cc3ccccc3)CCN(C(=O)OC(C)(C)C)CC2)cc1-c1ccccc1C)C(=O)[O-].[Li+]
Reply: 78

---

target.under.test: protein farnesyltransferase (Rattus norvegicus, UniProt Q02293+Q04631)
Construct: The enzyme is purified according to Reiss, Y., et al., Cell, 62: 81-88 (1990), utilizing steps one through three; from tissue; host or cells: rat brain
protocol.text: Inhibition of farnesyltransferase (scintillation proximity assay, rat brain enzyme, biotin-K Ras B fragment substrate)
Type: biochemical
test.settings: read-out: % inhibition at 0.1 μM (*); Table 6, * = 0.1 μM (footnote); title prints 0.1 mM
Experimental: The ability of the compounds of the invention to inhibit protein farnesyltransferase or protein geranylgeranyltransferase can be measured according to the method of Moores, et al., J. Biol. Chem. 266: 14603 (1991) or the method of Vogt, et al., J. Biol. Chem. 270:660-664 (1995). […] In addition, in vitro inhibition of protein farnesyltransferase may be measured by the following procedure. […] The % inhibition of protein farnesyltransferase was determined for representative compounds of the invention.
observable: inhibition at 0.1 µM (%)
Numeric answer only, unit % assumed.

[
  {
    "molecule": "CSCC[C@H](NC(=O)c1ccc(CN2CCC[C@H]2COc2cc(F)cc(F)c2)cc1-c1ccccc1C)C(=O)O",
    "inhibition at 0.1 µM (%)": 94
  }
]

Task item: # return recorded inhibition at 0.1 µM for entry COCC1CCC(Cc2ccccc2)N1Cc1ccc(C(=O)N[C@@H](CCSC)C(=O)O)c(-c2ccccc2C)c1 (stereo partly shown)
Reply: 86

Task item: # return recorded inhibition at 0.1 µM for entry COC1CC(COCC2CCCCC2)N(Cc2ccc(C(=O)NC(CCSC)C(=O)O)c(-c3ccccc3C)c2)C1 (stereo not shown)
Reply: 90
